Recorded herbicidal effect rating, ECHORC by entry
tested on: Echinochloa oryzoides (Ard.) Fritsch.; assay: Postemergence weed control under flooded paddy conditions, ECHORC (Watergrass (Calif.)); format: in vivo; details: Rate 0.2500 kg/ha, rated three to four weeks after treatment
Provide a numeric answer; units are not to be included.

>  <Molecule>
COC(=O)COc1ccc(C)cc1-c1noc2ccc(-n3c(=O)cc(C(F)(F)F)n(C)c3=O)c(Cl)c12

>  <Subject Of Test>
Echinochloa oryzoides (Ard.) Fritsch.

>  <herbicidal effect rating, ECHORC>
0.0

$$$$
>  <Molecule>
CC(C)S(=O)(=O)NC(=O)c1nsc2ccc(-n3c(=O)cc(C(F)(F)F)n(C)c3=O)cc12

>  <Subject Of Test>
Echinochloa oryzoides (Ard.) Fritsch.

>  <herbicidal effect rating, ECHORC>
9.0

$$$$
>  <Molecule>
COC(=O)C(C)Oc1ccc(C)cc1-c1nsc2ccc(-n3c(=O)cc(C(F)(F)F)n(C)c3=O)cc12 (centres unmarked)

>  <Subject Of Test>
Echinochloa oryzoides (Ard.) Fritsch.

>  <herbicidal effect rating, ECHORC>
2.0

$$$$
>  <Molecule>
Cc1ccc(OCC(=O)OCC2(c3ccccc3)CC2)c(-c2nsc3ccc(-n4c(=O)cc(C(F)(F)F)n(C)c4=O)cc23)c1

>  <Subject Of Test>
Echinochloa oryzoides (Ard.) Fritsch.

>  <herbicidal effect rating, ECHORC>
0.0

$$$$

Consider now this further molecule.
Exercise: Look up herbicidal effect rating, ECHORC with Echinochloa oryzoides (Ard.) Fritsch. for this molecule: CCCCC(=O)c1nsc2ccc(-n3c(=O)cc(C(F)(F)F)n(C)c3=O)cc12
Key: 9.0

###

tested on: Cyperus serotinus, Rottb.; assay: Preemergence weed control under flooded paddy conditions, CYPSE (Flatsedge); assay type: in vivo; settings: Rate 0.0620 kg/ha, preemergence, rated 3-4 weeks after treatment; also: meaning of each grade not given here
Below, each entry is listed with its recorded herbicidal effect rating, CYPSE.
Could you respond with only the numeric value?

>  <Compound>
C=CC(CCCC)OC(=O)COc1ccc(C)cc1-c1nsc2ccc(-n3c(=O)cc(C(F)(F)F)n(C)c3=O)cc12 (stereo not shown)

>  <herbicidal effect rating, CYPSE>
0.0

$$$$
>  <Compound>
Cc1ccc(OCC(=O)OCC2CCOC2)c(-c2nsc3ccc(-n4c(=O)cc(C(F)(F)F)n(C)c4=O)cc23)c1 (racemic)

>  <herbicidal effect rating, CYPSE>
3.0

$$$$
>  <Compound>
CC/C=C/CCCCCCCCCCOC(=O)COc1ccc(C)cc1-c1nsc2ccc(-n3c(=O)cc(C(F)(F)F)n(C)c3=O)cc12

>  <herbicidal effect rating, CYPSE>
0.0

$$$$
>  <Compound>
C=CCOCC(CC)(COCC=C)COC(=O)COc1ccc(C)cc1-c1nsc2ccc(-n3c(=O)cc(C(F)(F)F)n(C)c3=O)cc12

>  <herbicidal effect rating, CYPSE>
0.0

$$$$
>  <Compound>
CC(Oc1ccccc1-c1nsc2ccc(-n3c(=O)cc(C(F)(F)F)n(C)c3=O)cc12)C(=O)N(C)C (stereo not shown)

>  <herbicidal effect rating, CYPSE>
0.0

$$$$

Exercise: What value of herbicidal effect rating, CYPSE has been reported for the following compound? CC=CCOC(=O)C(C)(C)Oc1ccc(C)cc1-c1nsc2ccc(-n3c(=O)cc(C(F)(F)F)n(C)c3=O)cc12
Key: 0.0

Exercise: Which herbicidal effect rating, CYPSE value belongs to Cc1ccc(OCC(=O)c2ccc(OC(F)F)cc2)c(-c2nsc3ccc(-n4c(=O)cc(C(F)(F)F)n(C)c4=O)cc23)c1 ?
Key: 0.0
